System: L5178Y
assay_overview: Cytotoxicity against mouse L5178Y cells assessed as reduction in cell viability by MTT assay
Format: functional, cell-based
measured_property: IC50

As a guide, the following entries are already answered.
{"line_notation": "CCC(=O)c1ccc(OCCCN2CCN(c3ncccn3)CC2)cc1", "IC50": "> 100 µM"}
{"line_notation": "CC(=O)c1ccc(OCCCN2CCN(c3ncccn3)CC2)cc1", "IC50": "> 100 µM"}

# input for lookup
Q: Please report IC50 for the following compound: CC(=O)c1ccc(OCCCN2CCN(c3ccncc3)CC2)cc1
Result: > 100 µM
